Quick reference: EC50 of the listed items.
# Test system: THP-1 viability, CellTiter-Glo luminescence, 72 h
# Measurement notes: PubChem AID 2252

Molecule	EC50
COc1cccc(F)c1C(C[N+](=O)[O-])c1c(N)n(C)c(=O)n(C)c1=O (stereo not given)	6.05 µM
OCCN1CCN(Cc2cc(Cl)c3cccnc3c2O)CC1	7.5 µM
CCOc1ccccc1-c1cc(-c2ccccc2)nc2c1c(=O)n(C)c(=O)n2C	< 0.1 µM
Oc1ccccc1C(Nc1nccs1)c1ccc2cccnc2c1O (stereo not given)	2.11 µM
CN(C)CCCN(C(=O)CCc1ccccc1)c1nc2ccc(Br)cc2s1	13.4 µM
Cc1ccc(C(=O)N/C(=C\c2ccc(-c3ccc(Br)cc3)o2)C(=O)NCCCN(C)C)cc1	4.18 µM
Cc1ccc(-c2c[n+](CC(=O)Nc3nc(-c4ccccc4)cs3)c3n2CCC3)cc1	13.5 µM
O=C(C[n+]1cc(-c2ccc(Cl)c(Cl)c2)n2c1CCC2)N1c2ccccc2Sc2ccccc21	10.3 µM
Cc1cccc(OCC(O)Cn2c(=N)n(CCN3CCCCC3)c3ccccc32)c1 (stereo not given)	16.1 µM
C#CCOCCOCCOCCNc1nc(N2CCN(C(=O)CCCCCCCCCCNC(=O)[C@H]([C@@H](C)CC)n3cc(CCCCN=C(N)N)nn3)CC2)nc(N2CCN(C(=O)CCCCCCCCCCNC(=O)[C@H](CO)n3cc(CCCCCN)nn3)CC2)n1	7.5 µM
